Attribute: pEC50
# System: HEK293 cells overexpressing APOL1 G2
# ASSAY COMMENT: APOL1 G2 HEK293 cell rescue assay (reversal of cell death caused by overexpression of APOL1)
# Type: cell-based
# CONDITION LABEL: Homo sapiens, HEK293, HEK293 overexpressing APOL1 G2; geometric mean of at least 2 assay runs; † = single assay run
pEC50: −log10 of the molar value.
MEASURED ATTRIBUTE: pEC50

MOLECULE: O=C1Nc2ccc(Cl)cc2C12CCN(CCOc1ccc(S(=O)(=O)C3(C(=O)N4CCC4)CC3)cc1)CC2 [Compound 228]
MEASURED: 7.00
//
MOLECULE: [2H]C([2H])([2H])N1C(=O)C2(CCN(CCOc3cnc(C4(S(C)(=O)=O)CC4)nc3)CC2)c2cc(Cl)ccc21 [Compound 424]
MEASURED: 7.30
//
MOLECULE: C[C@]1(O)C[C@@H](N2C(=O)CCc3cc(OCCN4CCC5(CC4)C(=O)Nc4ccc(Cl)cc45)cnc32)C1 [Compound 275]
MEASURED: 7.57
//
MOLECULE: Cn1c(=O)oc2cc(OCCN3CCC4(CC3)C(=O)Nc3ccc(Cl)cc34)ccc21 [Compound 131]
MEASURED: 7.17
//
MOLECULE: CC1(O)CC(CN2C(=O)CCc3cc(OCCN4CCC5(CC4)C(=O)Nc4ccc(C(F)F)cc45)cnc32)C1 (centres unmarked) [Compound 320]
MEASURED: 7.66
//
MOLECULE: C[C@]1(O)C[C@@H](N2C(=O)Cc3cc(OCCN4CCC5(CC4)C(=O)Nc4ccc(C(F)F)cc45)cnc32)C1 [Compound 346]
MEASURED: 7.46
//
MOLECULE: CN(C)C(=O)C1(S(=O)(=O)c2ccc(OCCN3CCC4(CC3)C(=O)Nc3ccc(Cl)cc34)cc2)CC1 [Compound 227]
MEASURED: 7.33
//
MOLECULE: O=C1CCc2cc(OCCN3CCC4(CC3)C(=O)Nc3ccc(Cl)cc34)cnc2N1[C@H]1C[C@@](O)(C2CC2)C1 (single isomer, unassigned) [Compound 297]
MEASURED: 7.50
//
MOLECULE: CS(=O)(=O)c1ccc(OCCN2CCC3(CC2)C(=O)Nc2ccc(C#N)cc23)cc1C(F)(F)F [Compound 107]
MEASURED: 7.51
//
MOLECULE: CS(=O)(=O)c1ccc(OCCN2CCC3(CC2)C(=O)Nc2ccc(Cl)cc23)cc1C(F)F [Compound 197]
MEASURED: 7.49
//
MOLECULE: C[C@]1(O)C[C@@H](n2cnc3cc(OCCN4CCC5(CC4)C(=O)Nc4ccc(Cl)cc45)cc(C(F)F)c32)C1 [Compound 445]
MEASURED: 8.09
//
MOLECULE: CC(=O)c1ncc(OCCN2CCC3(CC2)C(=O)Nc2ccc(Cl)cc23)cc1C(F)(F)F [Compound 294]
MEASURED: 7.63
//
MOLECULE: CC1(O)CC(N2C(=O)CCc3cc(OCCN4CCC5(CC4)C(=O)Nc4ccc(Cl)cc45)cnc32)C1 (centres unmarked) [Compound 315]
MEASURED: 7.59
//
MOLECULE: O=C1Nc2ccc(Cl)cc2C12CCN(CCOc1cnc(C3(CO)CC3)nc1)CC2 [Compound 333]
MEASURED: 7.37
